target_system: Genome polyprotein (dengue virus type 2, UniProt P29990)
assay: Competitive inhibition of DENV2 NS2B-NS3 protease expressed in Escherichia coli BL21 lambda(DE3) using FRET substrate preincubated with enzyme for 15 mins followed by substrate addition for 15 mins by Michaelis-Menten based analysis
reported_endpoint: pKi
Keep it numeric: pKi is minus log10 of the concentration in mol/L.

Entry NC(=O)c1cccc(NC(=O)[C@@H](NC(=O)c2ccc(Oc3ccccc3)cc2)c2ccc(OCc3ccccc3)cc2)c1 : reported pKi = ?
5.28

Dear colleague, I am looking for the recorded pKi of the following compound: NC(=O)c1cccc(NC(=O)[C@@H](NC(=O)c2ccc(-c3ccc(Cl)cc3)cc2)c2ccc(OCc3ccccc3)cc2)c1
5.39

* * *

target_system: UniProt P00734
assay: Inhibition of thrombin in human plasma using Boc-Val-Pro-Arg-AMC as substrate at 25 uM preincubated with enzyme for 15 mins followed by substrate addition and measured for 15 mins by fluorimetric assay
Format: cell-free
cond: time 30.0 min
The source made the active and inactive calls. How the calls were made is not given here.

{"line_notation": "NCCCCCC(=O)N[C@H](C(=O)NCc1ccc(C(N)=O)cc1)c1ccc(OCc2ccccc2)cc1", "inhibition": "inactive"}
{"line_notation": "CCCCCC(=O)N[C@H](C(=O)NCc1ccc(C(N)=O)cc1)c1ccc(OCc2cccc(OC)c2)cc1", "inhibition": "inactive"}
{"line_notation": "NC(=O)c1cccc(NC(=O)[C@@H](NC(=O)c2ccc(C(=O)c3ccccc3)cc2)c2ccc(OCc3ccccc3)cc2)c1", "inhibition": "inactive"}
{"line_notation": "NC(=O)c1ccc(CNC(=O)[C@@H](NC(=O)c2ccc(OCc3ccccc3)cc2)c2ccc(OCc3ccccc3)cc2)cc1", "inhibition": "inactive"}

* * *

target_system: Genome polyprotein (dengue virus type 2, UniProt P29990)
assay: Inhibition of NS2B-NS3 protease in DENV2proHeLa system assessed as inhibition of luciferase signal incubated for 24 hrs by luciferase reporter gene assay
The entries below are paired with their reported EC50.
Your answer should be a plain number; it is taken to be in µM.

{"line_notation": "CCCCCC(=O)N[C@H](C(=O)NCc1ccc(C(N)=O)cc1)c1ccc(OCc2ccccc2)cc1", "u": "µM", "reading": 6.3}
{"line_notation": "NC(=O)c1cccc(NC(=O)[C@@H](NC(=O)c2ccc3c(c2)OCCO3)c2ccc(OCc3ccccc3)cc2)c1", "u": "µM", "reading": 5.4}
{"line_notation": "CCCCCC(=O)N[C@H](C(=O)NCc1ccc(C(N)=O)cc1)c1ccc(OCc2cccc(OC)c2)cc1", "u": "µM", "reading": 7.3}

Attention now shifts to the item below.
So what does the record say about EC50 for Cc1ccc(C)c(OCCCC(C)(C)C(=O)N[C@H](C(=O)Nc2cccc(C(N)=O)c2)c2ccc(OCc3ccccc3)cc2)c1 ?
1.7

* * *

target_system: Genome polyprotein (dengue virus type 2)
assay: Inhibition of NS2B-NS3 protease in DENV2proHeLa system assessed as inhibition of luciferase signal incubated for 24 hrs by luciferase reporter gene assay
// values below are reported pEC50
The quantity pEC50 is defined as the negative base-10 logarithm of the molar concentration.

// worked examples, pEC50 included
{"line_notation": "NC(=O)c1cccc(NC(=O)[C@@H](NC(=O)c2cccc(C(=O)N3CCOCC3)c2)c2ccc(OCc3ccccc3)cc2)c1", "reported_endpoint": "pEC50", "reading": 4.64}
{"line_notation": "COc1ccccc1Oc1ccc(C(=O)N[C@H](C(=O)Nc2cccc(C(N)=O)c2)c2ccc(OCc3ccccc3)cc2)cc1", "reported_endpoint": "pEC50", "reading": 5.66}
{"line_notation": "NC(=O)c1cccc(NC(=O)[C@@H](NC(=O)c2ccc(-c3cncnc3)cc2)c2ccc(OCc3ccccc3)cc2)c1", "reported_endpoint": "pEC50", "reading": 5.09}
{"line_notation": "NC(=O)c1ccc(CNC(=O)[C@@H](NC(=O)c2cc3ccccc3s2)c2ccc(OCc3ccccc3)cc2)cc1", "reported_endpoint": "pEC50", "reading": 5.18}
{"line_notation": "NC(=O)c1cccc(NC(=O)[C@@H](NC(=O)c2ccc(Oc3ccc4c(c3)OCCO4)cc2)c2ccc(OCc3ccccc3)cc2)c1", "reported_endpoint": "pEC50", "reading": 5.42}

// returns reported pEC50 for input NC(=O)c1cccc(NC(=O)[C@@H](NC(=O)c2ccc(Oc3ccc(C(F)(F)F)cc3)cc2)c2ccc(OCc3ccccc3)cc2)c1
5.92

# input compound: CCCCCCCS(=O)(=O)N[C@H](C(=O)NCc1ccc(C(N)=O)cc1)c1ccc(OCc2ccccc2)cc1 ; wanted: its pEC50
4.96

* * *

target_system: Prothrombin (Homo sapiens) (UniProt P00734)
assay: Inhibition of thrombin in human plasma using Boc-Val-Pro-Arg-AMC as substrate at 25 uM preincubated with enzyme for 15 mins followed by substrate addition and measured for 15 mins by fluorimetric assay
Assay type: cell-free
cond: time 30.0 min
Calls of active or inactive are those of the source. How the calls were made is not given here.
reported_endpoint: inhibition

Known results for compounds:
{"line_notation": "CCCCCC(=O)N[C@@H](C(=O)NCc1ccc(C(N)=O)cc1)c1ccc(OCc2ccccc2)cc1", "inhibition": "inactive"}
{"line_notation": "CC(C)CCOc1ccc(C(=O)N[C@H](C(=O)Nc2cccc(C(N)=O)c2)c2ccc(OCc3ccccc3)cc2)cc1", "inhibition": "inactive"}
{"line_notation": "CCCCCC(=O)N[C@@H](C(=O)NCc1ccc(C(N)=O)cc1)c1ccc(OCc2ccc(Cl)c(Cl)c2)cc1", "inhibition": "inactive"}
{"line_notation": "NC(=O)c1cccc(NC(=O)[C@@H](NC(=O)c2ccc(Oc3ccc4c(c3)OCO4)cc2)c2ccc(OCc3ccccc3)cc2)c1", "inhibition": "inactive"}
{"line_notation": "CCCCCC(=O)N[C@H](C(=O)NCc1ccc(C(N)=O)cc1)c1ccc(C(F)(F)F)cc1", "inhibition": "inactive"}

Checklist item: inhibition tested on Prothrombin (Homo sapiens) (UniProt P00734), entry NC(=O)c1ccc(CNC(=O)[C@@H](N)c2ccc(OCc3ccccc3)cc2)cc1 , value?
inactive

# get_value(readout= inhibition, system= Prothrombin (Homo sapiens) (UniProt P00734)) for Cc1ccc(C)c(OCCCC(C)(C)C(=O)N[C@H](C(=O)Nc2cccc(C(N)=O)c2)c2ccc(OCc3ccccc3)cc2)c1
inactive

Query for Prothrombin (Homo sapiens) (UniProt P00734): what inhibition does the record show for N#Cc1ccc(Oc2ccc(C(=O)N[C@H](C(=O)Nc3cccc(C(N)=O)c3)c3ccc(OCc4ccccc4)cc3)cc2)cc1 ?
inactive

# query: inhibition | item NC(=O)c1ccc(CNC(=O)[C@@H](NC(=O)C2CCC2)c2ccc(OCc3ccccc3)cc2)cc1 | system: Prothrombin (Homo sapiens) (UniProt P00734)
inactive

// lookup inhibition | system=Prothrombin (Homo sapiens) (UniProt P00734) | key= NC(=O)c1cccc(NC(=O)[C@@H](NC(=O)c2ccc(Oc3ccccc3)cc2)c2ccc(Oc3ccccc3)cc2)c1
inactive

Lab note: need inhibition for CCCCCC(=O)N[C@H](C(=O)NCc1ccc(C(=O)O)cc1)c1ccc(OCc2ccccc2)cc1 on Prothrombin (Homo sapiens) (UniProt P00734), anyone have it?
inactive

* * *

# maps each entry to its CC50 at 24 h
assay: Cytotoxicity against human HeLa cells assessed as reduction in cell viability incubated for 24 hrs by CellTiter-Blue assay
Type: cell-based

{"line_notation": "CCCCCC(=O)N[C@H](C(=O)NCc1ccccc1)c1ccc(OCc2ccccc2)cc1", "CC50 at 24 h": "> 50 µM"}
{"line_notation": "NCc1ccc(C(=O)N[C@H](C(=O)NCc2ccc(C(N)=O)cc2)c2ccc(OCc3ccccc3)cc2)cc1", "CC50 at 24 h": "> 50 µM"}
{"line_notation": "CCCCCC(=O)N[C@@H](C(=O)NCc1ccc(C(N)=O)cc1)c1ccc(OCc2ccccc2)cc1", "CC50 at 24 h": "> 50 µM"}
{"line_notation": "CCCCCC(=O)N[C@H](C(=O)N1CCC(C(N)=O)CC1)c1ccc(OCc2ccccc2)cc1", "CC50 at 24 h": "> 50 µM"}
{"line_notation": "CCCCCC(=O)N[C@H](C(=O)NCc1ccc(C(N)=O)cc1)c1ccccc1", "CC50 at 24 h": "> 50 µM"}

Recorded CC50 at 24 h for CCCCCC(=O)N[C@H](C(=O)Nc1ccc(C(N)=O)cc1)c1ccc(OCc2ccccc2)cc1 , please?
> 12.5 µM

* * *

target_system: Genome polyprotein (dengue virus type 2)
assay: Inhibition of NS2B-NS3 protease in DENV2proHeLa system assessed as inhibition of luciferase signal at 12.5 uM incubated for 24 hrs by luciferase reporter gene assay
Format: cell-based
cond: HeLa
Class class 1: inhibition at least 60%. Class class 0: inhibition below 60%.

Worked examples, 5 compounds total:
{"line_notation": "CCCCCC(=O)N[C@H](C(=O)Nc1ccc(C(N)=O)cc1)c1ccc(OCc2ccccc2)cc1", "assigned_label": "class 0"}
{"line_notation": "COc1cccc(COc2ccc([C@H](NC(=O)c3ccc(C(=O)c4ccccc4)cc3)C(=O)Nc3cccc(C(N)=O)c3)cc2)c1", "assigned_label": "class 1"}
{"line_notation": "CCCC[C@H](NC(C)=O)C(=O)N[C@H](C(=O)NCc1ccc(C(N)=O)cc1)c1ccc(OCc2ccccc2)cc1", "assigned_label": "class 0"}
{"line_notation": "NC(=O)c1cccc(NC(=O)[C@@H](NC(=O)c2cccc(C(=O)N3CCOCC3)c2)c2ccc(OCc3ccccc3)cc2)c1", "assigned_label": "class 0"}
{"line_notation": "CCCCCC(=O)N[C@H](C(=O)NCc1ccc(OC)cc1)c1ccc(OCc2ccccc2)cc1", "assigned_label": "class 0"}

From here, focus on the item given below.
Does the compound NC(=O)c1cccc(NC(=O)[C@@H](NC(=O)c2ccc3ccccc3c2)c2ccc(OCc3ccccc3)cc2)c1 have recorded inhibition that is 60% or more?
class 1

From: ChEMBL document CHEMBL4811254
